system: P. auruginosa 10419; assay: microbe, parasite or virus in culture; assay type: cell-based, Pseudomonas aeruginosa
Residues, ends and D or L forms follow the SMILES beside them.
QUANTITY_NAME: MIC (µM)
Give bare numbers, in µM.

Inquiry: I am curious: what MIC value has been reported for CC[C@H](C)[C@H](NC(=O)[C@H](CCCCN)NC(=O)[C@H](CCCCN)NC(=O)[C@H](CC(C)C)NC(=O)[C@H](CCCNC(=N)N)NC(=O)[C@H](CCCCN)NC(=O)[C@H](CCCNC(=N)N)NC(=O)[C@H](Cc1c[nH]c2ccccc12)NC(=O)[C@H](CCCCN)NC(=O)[C@H](CCCCN)NC(=O)[C@H](CCCNC(=N)N)NC(=O)[C@H](CC(C)C)NC(=O)[C@H](CCCNC(=N)N)NC(=O)[C@H](CCCNC(=N)N)NC(=O)[C@H](Cc1ccccc1)NC(=O)[C@@H](N)CCCNC(=N)N)C(N)=O [T9W] (H-RFRRLRKKWRKRLKKI-NH2) ?
Reply text: 4
